Each recorded value in this set is attributed to paper PMC6154694.

Task for the reader: assign each of the following compounds its reported concentration at 2 h.
test: Mouse pharmacokinetic study of oral GE with and without ketoconazole, plasma with and without β-glucuronidase treatment
Format: in vivo, male mice (C57BL6J)
condition-parameters: male, C57BL6J; mouse plasma; 250 mg/kg GE oral; 2 h; −βgd
Kindly answer with a numeric value in ng/mL, unit omitted.

*Q* concentration at 2 h for CCCCC[C@H](O)CC(=O)CCc1ccc(O)c(OC)c1 ?
*A* 27.2

*Q* Similarly, CCCCCCCC(O)CC(=O)CCc1ccc(O)c(OC)c1 (stereo not shown) ?
*A* 0.43

*Q* Now consider CCCCCCCCCC(O)CC(=O)CCc1ccc(O)c(OC)c1 (stereo not shown) [10G, 10-gingerol] and answer again.
*A* 4.08

*Q* Follow-up entry: CCCCC/C=C/C(=O)CCc1ccc(O)c(OC)c1
*A* 0.38
